Molecular target: UniProt:P32738
Sequence (P32738 whole entry): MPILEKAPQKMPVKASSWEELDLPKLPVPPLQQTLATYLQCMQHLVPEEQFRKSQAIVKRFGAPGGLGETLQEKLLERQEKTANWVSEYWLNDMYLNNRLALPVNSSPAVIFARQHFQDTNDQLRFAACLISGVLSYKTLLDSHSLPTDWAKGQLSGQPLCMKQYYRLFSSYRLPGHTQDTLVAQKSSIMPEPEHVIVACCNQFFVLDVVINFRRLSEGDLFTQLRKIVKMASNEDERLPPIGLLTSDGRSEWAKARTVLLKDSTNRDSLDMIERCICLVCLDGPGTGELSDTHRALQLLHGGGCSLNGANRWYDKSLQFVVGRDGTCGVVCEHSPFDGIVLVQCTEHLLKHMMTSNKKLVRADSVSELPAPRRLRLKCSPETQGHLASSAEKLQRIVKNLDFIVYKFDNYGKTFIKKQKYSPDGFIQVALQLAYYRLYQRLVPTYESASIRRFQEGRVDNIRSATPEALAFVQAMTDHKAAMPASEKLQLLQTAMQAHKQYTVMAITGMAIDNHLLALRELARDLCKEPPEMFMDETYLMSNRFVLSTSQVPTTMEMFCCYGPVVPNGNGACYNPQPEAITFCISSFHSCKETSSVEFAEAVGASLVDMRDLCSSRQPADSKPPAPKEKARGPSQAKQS
Assay: Inhibition of choline acetyltransferase (ChAT) activity
Settings: read-out: I50
reported.endpoint: pIC50
To interpret pIC50, take it as minus log10 of a concentration measured in moles per litre.

Input line: What value of pIC50 has been recorded for this entry: "NC(=O)NC(=O)CBr"
Output line: 3.89

***
Input line: Data request, read-out pIC50, for "CCNC(=O)NC(=O)CBr"
Output line: 3.60

====

assay: Degree of specificity expressed as the ratio of I50 of AChE to I50 of ChAT
reported.endpoint: Ratio
// return just the number, without any unit appended

Input line: Give its Ratio value. Item: "CC(=O)C[n+]1ccc(/C=C/c2cccc3ccccc23)cc1"
Output line: 8

Further cases:
Input line: Need Ratio, item "OCCC[n+]1ccc(/C=C/c2cccc3ccccc23)cc1"
Output line: 28

Input line: Any idea what Ratio was measured for "CCOC(=O)C[n+]1ccc(/C=C/c2cccc3ccccc23)cc1" ?
Output line: 32

Input line: Ratio lookup needed for "Cc1c[n+](CCN)ccc1/C=C/c1cccc2ccccc12" , thanks.
Output line: 6

Input line: Which Ratio is reported for this compound? "O=C(CBr)C[n+]1ccc(/C=C/c2cccc3ccccc23)cc1"
Output line: 4

Input line: Give its Ratio value. Item: "CCC[n+]1ccc(/C=C/c2cccc3ccccc23)cc1"
Output line: 92

Input line: # get_value(readout='Ratio', item= "CCNC(=O)NC(=O)C[n+]1ccc(/C=C/c2cccc3ccccc23)cc1" )
Output line: 33

Input line: Entry "NC(=O)NC(=O)C[n+]1ccc(/C=C/c2cccc3ccccc23)cc1" has what Ratio?
Output line: 38

====

experiment: Degree of specificity expressed as the ratio of I50 of AChE to I50 of ChAT
Reported Ratio is given for each of the following molecules.
Please reply with the value in numeric form only.

Input line: What does the data say about its Ratio? Entry: "OCC[n+]1ccc(/C=C/c2cccc3ccccc23)cc1"
Output line: 40

More entries:
Input line: Request the reported Ratio associated with "CCOC(=O)C[n+]1ccc(/C=C/c2cccc3ccccc23)c(C)c1"
Output line: 8

====

Readings of Ratio for the listed compounds
test: Degree of specificity expressed as the ratio of I50 of AChE to I50 of ChAT
Give only the figure.

Before answering, review these 2 worked examples.
Input line: Fill in the blank: the reported Ratio of "O=C(O)CC[n+]1ccc(/C=C/c2cccc3ccccc23)cc1" is ____.
Output line: 25

Input line: Ratio lookup needed for CCCCCCC(C)OC(=O)CC(=O)C[n+]1ccc(/C=C/c2cccc3ccccc23)cc1 (stereo unspecified) , thanks.
Output line: 7

Let us examine a further case.
Input line: Quick one: Ratio for "Cc1c[n+](CCO)ccc1/C=C/c1cccc2ccccc12" ?
Output line: 16

====

assay: Degree of specificity expressed as the ratio of I50 of AChE to I50 of ChAT
reported.endpoint: Ratio

Input line: I have this compound here, "Cc1cnccc1/C=C/c1cccc2ccccc12" , and I need its recorded Ratio.
Output line: > 25

New cases:
Input line: What value of Ratio has been reported for the following compound? "O=C(CO)C[n+]1ccc(/C=C/c2cccc3ccccc23)cc1"
Output line: > 200

Input line: Dear colleague, I am looking for the recorded Ratio of the following compound: "C(=C\c1cccc2ccccc12)/c1ccncc1"
Output line: > 26
